Entry source: PubChem BioAssay (NCI)

Assay: NCI Yeast Anticancer Drug Screen. Data for the wt1 strain (AID 149);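 also: 0% = growth of vehicle-treated wt1 cultures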
Conditions: S. cerevisiae wt1 strain (SPY 50644) growth inhibition; at 33.0 µM; hits give high values
The panel holds about 79,000 compounds, 15% with a hit somewhere; the sample as a whole holds those more often.
Label scheme for growth inhibition: lower than 80% is false, 80% and above is true.

Asked: Could you tell me if the measured growth inhibition of CC(C)/C(Cl)=N\OC(=O)Nc1ccc(F)cc1F reaches 80% or more?
Given back: false

Asked: Next compound up: Cc1cc(NCCCCCCCCNc2cc(C)nc3cc(N)ccc23)c2ccc(N)cc2n1
Given back: true

Asked: Next compound up: COC(=O)/C=C(/C(=O)OC)C(Cl)(Cl)Cl
Given back: true

Asked: Next compound up: O=[N+]([O-])c1cc(F)c(F)cc1Sc1cc(F)c(F)cc1[N+](=O)[O-]
Given back: true

Asked: Next compound up: CCCCc1nnc(NS(=O)(=O)c2ccc(C)cc2)s1
Given back: false

Asked: Next compound up: CCN(CC)CCOc1cc(C)c2cc(Cc3ccccc3)ccc2n1
Given back: false

---

Experiment: NCI Yeast Anticancer Drug Screen. Data for the mec2-1 strain (AID 157)
Settings: S. cerevisiae mec2-1 strain, at 33.0 µM, hits give high values
This is part of a sample that, as a whole, favours compounds with a hit. Of some 79,000 tested, about 15% had one in any assay. Activity calls are given as the source filed them. Rule as the data show it: active = growth inhibition above about 70%; inactive = the rest.
quantity_kind: growth inhibition

Asked: Dear colleague, I am looking for the recorded growth inhibition of the following compound: CNC(=O)OCc1c(COC(=O)NC)c(-c2ccc(Cl)c(Cl)c2)n2c1SCC2
Given back: -4% (inactive)

Asked: Next compound up: Oc1ccc(-c2nc(-c3ccc(F)cc3)c(-c3ccc4ccccc4n3)[nH]2)cc1
Given back: 98% (active)

Asked: Next compound up: Nc1ncc(-c2ccc(Br)cc2)s1
Given back: 92% (active)

Asked: Next compound up: CN(C)[C@@H]1C(=O)C(C(N)=O)=C(O)[C@@]2(O)C(=O)C3=C(O)c4c(O)cccc4C[C@H]3C[C@@H]12
Given back: 97% (active)

Asked: Next compound up: COc1cc([C@@H]2c3cc4c(cc3[C@H](OC3OC5COC(C(C)C)OC5C(O)C3O)C3COC(=O)[C@@H]32)OCO4)cc(OC)c1O (some centres undefined)
Given back: -5% (inactive)

Asked: Next compound up: O=C(/C=C/c1cc(Cl)cc(Cl)c1O)c1cccc(O)c1
Given back: 99% (active)

Asked: Next compound up: C[C](C)(C)[Ge]([O][Ge]([c]1ccccc1)[c]1ccccc1)([O][Ge]([c]1ccccc1)[c]1ccccc1)[C](C)(C)C
Given back: 80% (active)

Asked: Next compound up: O=c1ssc(=Nc2ccccc2)n1-c1ccccc1
Given back: 5% (inactive)

Asked: Next compound up: COC1CCC(O)C(/C=C/[N+](=O)[O-])C1 (centres undefined)
Given back: 99% (active)

---

Assay: NCI Yeast Anticancer Drug Screen. Data for the rad52 strain (AID 147);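 also: 0% = growth of vehicle-treated control cultures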
Conditions: S. cerevisiae rad52 mutant growth inhibition; at 33.0 µM
Compounds without any hit were thinned out: in the full panel of roughly 79,000, 15% have a hit. Calls of active or inactive are those of the source. Rule as the data show it: active = growth inhibition above about 70%; inactive = the rest.
Permitted responses: 1 (active), -1 (inactive)

Asked: Would you mind telling me which call this test gave Cc1ccc([N+]2=NC(c3ccccc3)=NN(c3ccccc3)C2)cc1 ?
Given back: 1

Asked: Next molecule up: CC(=O)OCC1OC2OC(=O)NC2C(OC(C)=O)C1OC(C)=O (stereo not given)
Given back: -1

Asked: Next molecule up: CCO/C(C)=C(/C#N)C(N)=S
Given back: -1

Asked: Next molecule up: O=C1Nc2ccccc2/C1=C/c1ccccc1
Given back: -1

Asked: Next molecule up: Cc1nc(-c2cc3cc([N+](=O)[O-])ccc3oc2=O)cs1
Given back: -1

Asked: Next molecule up: O=c1c2ccccc2nc(-c2ccccc2)n1O
Given back: 1

Asked: Next molecule up: CN(C)CCOC1(Cc2ccc(Cl)cc2Cl)CCC(C(C)(C)C)CC1 (stereo not given)
Given back: 1

Asked: Next molecule up: C#CCN(Cc1ccc2nc(N)[nH]c(=O)c2c1)c1ccc(C(=O)NC(CCC(=O)O)C(=O)O)cc1 (stereo not given)
Given back: 1

Asked: Next molecule up: N#CNC(N)=Nc1cc2ccccc2c2ccccc12
Given back: 1

Asked: Next molecule up: COc1ccc(/C=C2\NC(=S)N(/C=C3\C(=O)Oc4ccccc4C3=O)C2=O)cc1
Given back: -1

Asked: Next molecule up: O=C1CC(=O)c2ccccc21
Given back: -1

Asked: Next molecule up: CCC(=O)c1cc(C(=O)C(=S)SC)cc(C(=O)C(=S)SC)c1
Given back: 1

Asked: Next molecule up: c1ccc(CCN2CCc3ccccc3C2)cc1
Given back: -1

Asked: Next molecule up: NC(=O)c1c([N+](=O)[O-])cc(C(F)(F)F)cc1[N+](=O)[O-]
Given back: -1

Asked: Next molecule up: Cc1ccc(CC2(OCCN(C)C)CCC(C(C)(C)C)CC2)cc1 (stereo not given)
Given back: -1

Asked: Next molecule up: Cc1ccccc1N=C(NO)c1ccccc1
Given back: -1

Asked: Next molecule up: CCOC(=O)c1[nH]n(-c2ccccc2)c(=O)c1C=NC(=S)C(N)=S
Given back: 1

Asked: Next molecule up: Cc1cc(NCCCCCCCCNc2cc(C)nc3cc(N)ccc23)c2ccc(N)cc2n1
Given back: 1

Asked: Next molecule up: COC(=O)Oc1cc(Cl)c(Cl)cc1Cl
Given back: -1

Asked: Next molecule up: CCCC/C([O-])=C1/C(=O)N(c2ccccc2)N=C1C.CCCC/C([O-])=C1/C(=O)N(c2ccccc2)N=C1C.[Cu+2]
Given back: -1

Asked: Next molecule up: CCCCCCOC(=O)NCCOC(=O)Nc1ccccc1
Given back: -1

Asked: Next molecule up: N=C1N=Nc2nc(C3(c4nc5n(c4O)C(=N)N=N5)Cc4ccccc4C3=O)c(O)n21 (stereo not given)
Given back: -1

Asked: Next molecule up: CNC(=O)OCc1c(COC(=O)NC)c2n(c1C)-c1ccc(OC)cc1CCC2
Given back: 1

Asked: Next molecule up: COC(=O)CC1CCc2c(ccc3ccccc23)C1(C)C(=O)OC (stereo not given)
Given back: -1

Asked: Next molecule up: COC(=O)NC1C(C)OC(OC2C/C=C(/C)C3C=CC4C(OC5CC(OC6CC(O)C(OC7CC(O)C(OC)C(C)O7)C(C)O6)C(O)C(C)O5)C(C)CC(C)C4C3(C)/C(O)=C3\C(=O)OC4(CC(C)C(CO)=CC4/C=C\2C)C3=O)CC1(C)[N+](=O)[O-] (stereo not given)
Given back: -1

Asked: Next molecule up: Nc1nc2ccc(NCc3ccc(C(=O)NC(CCC(=O)O)C(=O)O)cc3)cc2c(=O)[nH]1 (stereo not given)
Given back: -1

Asked: Next molecule up: COc1ccc(N=CN(C)C)c(C)c1
Given back: 1

Asked: Next molecule up: Cc1ccc(N=Nc2ccc(O)c(=O)cc2)cc1
Given back: 1

Asked: Next molecule up: COc1ccc(NC(=O)CC2SC(=Nc3ccccc3C)NC2=O)c([N+](=O)[O-])c1 (stereo not given)
Given back: -1

Asked: Next molecule up: Cc1cccc(C(C)(C)C)c1NC(=O)C(C#N)C1=C(Cl)C(=O)c2ccccc2C1=O (stereo not given)
Given back: 1

Asked: Next molecule up: CCN(CC)CCNc1ccc2ncn3c4cc(OC)c(OC)c(=O)c4c(O)c1c23
Given back: -1

Asked: Next molecule up: Nc1ccc(F)cc1S
Given back: -1

Asked: Next molecule up: COC(=O)C1(C)CCc2c(ccc3ccccc23)C1=O (stereo not given)
Given back: -1

Asked: Next molecule up: CN(C)c1ccc2c(SCC(=O)OCC(=O)[C@@]3(O)CC[C@H]4[C@@H]5CCC6=CC(=O)C=C[C@]6(C)[C@H]5C(=O)C[C@@]43C)c3ccc(N(C)C)cc3nc2c1
Given back: 1

Asked: Next molecule up: Clc1ccc2c(c1)N(CCCN1CCCC13CCCCC3)c1ccccc1S2
Given back: -1

---

I'd appreciate it if you could supply growth inhibition values for the items below.
Assay: NCI Yeast Anticancer Drug Screen. Data for the mec2-1 strain (AID 157)
Details: S. cerevisiae mec2-1 strain, at 50.0 µM (retest, dose inferred, filed as 5.0), hits give high values
Experimental: Growth inhibition of yeast strains with defined genetic alterations is measured as a screen for potential anti-cancer activity. Selected strains with alterations in DNA damage repair or cell cycle control were exposed to compounds and growth inhibition was measured relative to vehicle treated controls. The strain used in this assay is mec2-1
Compounds without any hit were thinned out: in the full panel of roughly 79,000, 15% have a hit.
# number only, unit % dropped from output

Asked: Dear colleague, I am looking for the recorded growth inhibition of the following molecule: O=c1nc2n(Cc3ccccc3)c3ccccc3nc-2c(=O)[nH]1
Given back: -5

Asked: Next molecule up: C=C1CC(CCCl)(c2ccccc2)OC1=O (stereo unspecified)
Given back: 98

Asked: Next molecule up: Nc1ncc(-c2ccc(Br)cc2)s1
Given back: 55

Asked: Next molecule up: CC[N+](CC)(CC)c1ccccc1
Given back: 98

Asked: Next molecule up: COC(=O)C1(C)CCc2c(ccc3ccccc23)C1=O (stereo unspecified)
Given back: -17

Asked: Next molecule up: CC(C)(C)N=C(NO)c1ccccc1
Given back: 2

Asked: Next molecule up: CC(=O)OC1CCC2(C)C(=CC(C3C=C4CC(OC(C)=O)CCC4(C)C4=C3C3CC5OC6(CCC(C)CO6)C(C)C5C3(C)CC4)C3=C2CCC2(C)C3CC3OC4(CCC(C)CO4)C(C)C32)C1 (stereo unspecified)
Given back: 33

Asked: Next molecule up: CN(C)CCNC(=O)c1cccc2cc([N+](=O)[O-])ccc12
Given back: 72

Asked: Next molecule up: NC1=NNC2(C(N)=N1)c1ccccc1-c1ccccc12
Given back: 18

Asked: Next molecule up: Cc1cc(O)c(C(C)C)cc1C1(c2cc(C(C)C)c(O)cc2C)OC(=O)c2ccccc21
Given back: 98

Asked: Next molecule up: O=C(NCCCl)Sc1ccc(Cl)cc1
Given back: 82
